biological target: Glucocorticoid receptor (Homo sapiens) (UniProt P04150); test: GR-GFP Redistribution (AID 450); settings: U2OS GR-GFP nuclear translocation, laser cytometry, 2 h
Sequence (P04150 whole entry, looked up): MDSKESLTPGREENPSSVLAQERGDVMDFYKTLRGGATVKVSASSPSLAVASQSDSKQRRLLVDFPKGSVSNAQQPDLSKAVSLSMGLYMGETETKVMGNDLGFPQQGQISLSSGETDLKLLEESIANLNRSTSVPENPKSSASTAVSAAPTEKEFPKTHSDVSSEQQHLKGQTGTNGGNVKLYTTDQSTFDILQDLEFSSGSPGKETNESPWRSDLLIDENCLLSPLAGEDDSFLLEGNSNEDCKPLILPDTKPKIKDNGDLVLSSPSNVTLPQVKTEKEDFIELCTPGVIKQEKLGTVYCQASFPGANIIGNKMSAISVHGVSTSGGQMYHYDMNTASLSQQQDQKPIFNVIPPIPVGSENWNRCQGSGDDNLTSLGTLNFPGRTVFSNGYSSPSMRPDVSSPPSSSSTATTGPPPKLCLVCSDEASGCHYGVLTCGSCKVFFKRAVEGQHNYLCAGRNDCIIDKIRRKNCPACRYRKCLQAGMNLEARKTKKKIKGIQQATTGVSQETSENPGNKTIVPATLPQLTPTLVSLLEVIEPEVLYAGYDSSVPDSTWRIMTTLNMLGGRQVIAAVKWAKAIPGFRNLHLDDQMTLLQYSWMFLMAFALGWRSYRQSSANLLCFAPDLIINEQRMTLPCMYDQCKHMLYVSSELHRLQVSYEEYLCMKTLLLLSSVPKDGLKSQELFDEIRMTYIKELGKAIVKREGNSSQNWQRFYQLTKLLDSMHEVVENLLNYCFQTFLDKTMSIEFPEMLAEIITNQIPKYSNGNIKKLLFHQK
Activity calls are given as the source filed them.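 How the source made its calls: active means compounds whose dose series gives a full or clear partial fitted curve of increased nuclear translocation; inconclusive means weak partial curve or effect only at the top dose; inactive means no dose-dependent translocation response.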
Possible outcomes: t for active, f for inactive

compound | assigned-class
CN1CCCN(C(c2ccccc2)c2ccc(Cl)cc2)CC1 (stereo not given) | t
CC1(C)O[C@@H]2C[C@H]3[C@@H]4C[C@H](F)C5=CC(=O)C=C[C@]5(C)[C@@]4(F)[C@@H](O)C[C@]3(C)[C@]2(C(=O)CO)O1 | t
Nc1c[n+](N2CCOCC2)no1 | f
CC(=O)[C@@]1(O)CC[C@H]2[C@@H]3C[C@H](C)C4=CC(=O)CC[C@]4(C)[C@H]3CC[C@@]21C | t
Clc1ccc2c(c1)N=C(N1CCNCC1)c1ccccc1N2 | f

###

test system: HEK293; test: Cytotoxic Profiling of Annotated Libraries Using Quantitative High-Throughput Screening (AID 1296008); settings: Five cell lines viability, CellTiter-Glo ATP luminescence, 48-72 h; active compounds read low; further: on the % scale 0 is the no-effect control and ±100 the full control effect; nearly all actives have a fitted effect of over 60% in size
Inconclusive results are not listed.
endpoint: max response (%)

molecule | tested-system | endpoint | measured-number
CSc1ccc(/C=C2/C(C)=C(CC(=O)O)c3cc(F)ccc32)cc1 | HEK293 | max response | 0.521
O=C(O)CCC(=O)OC[C@@H](NC(=O)C(Cl)Cl)[C@H](O)c1ccc([N+](=O)[O-])cc1 | HEK293 | max response | -21.8
Cc1onc(-c2ccccc2)c1C(=O)Cl | HEK293 | max response | 0.397
CC(Oc1c(Cl)cccc1Cl)C1=NCCN1 (stereo unspecified) | HEK293 | max response | 4.99
C=CCOc1cc(Cl)ccc1C(=O)NCCN(CC)CC | HEK293 | max response | -33.1
CC(C)OP(=O)(CP(=O)(OC(C)C)OC(C)C)OC(C)C | HEK293 | max response | -0.755

###

test: S16 Schwann cell viability assay (CellTiter-Glo assay) (AID 624031); conditions: S16 rat Schwann cells viability, 24 h; series mostly up to 57.5 µM; further: nearly all actives have a fitted effect of over 70% in size
Records with an inconclusive call do not appear. Calls of active or inactive are those of the source. Calls come from the whole dose curve; as a rule, active = well fitted cell-killing curve with a large enough effect; inconclusive = small, poorly fitted or top-dose-only effect, or effect the other way; inactive = flat fitted curve, though single readings scatter.
Classes used: 1 (yes) (active), 0 (no) (inactive)

compound | assigned-class
CN1CCCN(C(c2ccccc2)c2ccc(Cl)cc2)CC1 (centres undefined) | 1 (yes)
CCCCCCCCCCCCCCCC[N+](C)(C)Cc1ccccc1 | 1 (yes)
Nc1ccc2cc3ccc(N)cc3nc2c1 | 0 (no)
Nc1ncnc2nc[nH]c12 | 0 (no)

###

test system: Tov-21-G; test: Primary qHTS to identify gynecologic anti-cancer compounds using libraries of approved drugs and bioactive compounds (AID 1345084); conditions: Gynecologic cancer cell panel viability, ATPlite luminescence, 48 h; series mostly up to 57.5 µM; further: nearly all actives have a fitted effect of over 55% in size
Results filed as inconclusive are left out. Active and inactive are the calls of the source. The call rests on the fitted dose curve; in most records, active means well fitted cell-killing curve with a large enough effect; inconclusive means small, poorly fitted or top-dose-only effect, or effect the other way; inactive means flat fitted curve, though single readings scatter.
Possible outcomes: Y (active), N (inactive)

compound | assigned-class
O=P(O)(O)OCC(O)CO (configuration not stated) | N
CC(=O)N(CC(=O)N(C)C)c1ccccc1 | N
CCOC(=O)OCC/C(SC(=O)OCC)=C(\C)N(C=O)Cc1cnc(C)nc1N | N
Nc1c2ccccc2nc2ccccc12 | Y
CC(=O)O[C@H]1CC[C@@]2(C)C(=CC[C@@H]3[C@@H]2CC[C@]2(C)C(C(C)=O)=CC[C@@H]32)C1 | N
C[C@@H](C1=C(CCN(C)C)Cc2ccccc21)c1ccccn1 | N
CC(C)C(C)(C)C(C)(C)C(C)(C)S | N
CCO[C@H](Cc1ccc(OCCc2ccc(OS(C)(=O)=O)cc2)cc1)C(=O)O | N
CN=C(N)NC(=O)Nc1c(C)cccc1C | N
CC(C)=CCC/C(C)=C/CC/C(C)=C/C(=O)OCC(=O)[C@@]1(O)CC[C@H]2[C@@H]3CCC4=CC(=O)C=C[C@]4(C)[C@H]3[C@@H](O)C[C@@]21C | N
CC(C)(C)c1ccc(C(=O)CCCCl)cc1 | N
O=C(OCC1(COC(=O)c2cccnc2)CCCC(COC(=O)c2cccnc2)(COC(=O)c2cccnc2)C1O)c1cccnc1 | N
O=C(O)c1[nH]n(-c2ccc(S(=O)(=O)O)cc2)c(=O)c1N=Nc1ccc(S(=O)(=O)O)cc1 | N
N#C/C(=C1/SC[C@@H](c2ccc(Cl)cc2Cl)S1)n1ccnc1 | N
CN1CCC(Nc2ncc3ncnc(Nc4ccc(F)c(Cl)c4)c3n2)CC1 | N
COC(=O)c1cc(S(N)(=O)=O)ccc1OC | N
O=C(Nc1ccc(S(=O)(=O)N2CCOCC2)cc1)c1cc(Cl)ccc1NS(=O)(=O)c1ccc(Cl)s1 | N
Oc1ccccc1 | N
OC1(c2ccc(Cl)c(C(F)(F)F)c2)CCN(CCCC(c2ccc(F)cc2)c2ccc(F)cc2)CC1 | N
[O-][n+]1cccc(/C(Cl)=N/OC[C@@H](O)CN2CCCCC2)c1 | N
CC(=O)Oc1ccc(C2(c3ccc(OC(C)=O)cc3)Oc3ccccc3NC2=O)cc1 | Y
CC(=O)Nc1ccc(S(=O)(=O)Nc2cc(C)on2)cc1 | N
